Tested on: HL-60(TB) leukemia
Assay: NCI-60 one-dose screen, 48 h
Details: 10 µM unless noted
About 83,000 compounds went through this panel and 20% of them were active in at least one assay; those are over-represented in the sample as a whole. Calls of active or inactive are those of the source. The calls were made as follows: active = growth percent below 10; inactive = the rest.
Classes used: active, inactive

>  <compound>
CCCc1nc2ccccn2c1Nc1ccc(C(=O)NO)cc1

>  <discrete.label>
inactive

$$$$
>  <compound>
CCOC(=O)CC1CSC(c2cccc(Cl)c2)=N1 (stereo not given)

>  <discrete.label>
inactive

$$$$
>  <compound>
NC(=O)c1ncn([C@@H]2O[C@H](CO)[C@@H](O)[C@H]2O)n1

>  <discrete.label>
inactive

$$$$
>  <compound>
CC(C)(C)c1nc(-c2cccc(NS(=O)(=O)c3c(F)cccc3F)c2F)c(-c2ccnc(N)n2)s1

>  <discrete.label>
inactive

$$$$
>  <compound>
N=C(N)c1ccc(-c2ccc(-c3cc(Cl)cc(Cl)c3)s2)s1

>  <discrete.label>
active

$$$$
>  <compound>
NC[C@@](O)(c1ccc(Cl)cc1)c1ccc(-c2cn[nH]c2)cc1

>  <discrete.label>
active

$$$$
>  <compound>
CC(=O)N1CCN(c2ccc(OCC3CO[C@](Cn4ccnc4)(c4ccc(Cl)cc4Cl)O3)cc2)CC1 (stereo not given in full)

>  <discrete.label>
inactive

$$$$
>  <compound>
O=C(COCc1c(-c2ccccc2)no[n+]1[O-])Nc1ccc(C(=O)/C=C/c2ccc3c(c2)OCO3)cc1

>  <discrete.label>
inactive

$$$$
>  <compound>
O=C(NCc1ccc(F)cc1)C1CN(c2ccc(Cl)cc2)N(c2ccc(Cl)cc2)C1=O (stereo not given)

>  <discrete.label>
inactive

$$$$
>  <compound>
NC(=O)/C=C/C(=O)c1c(Cl)cccc1Cl

>  <discrete.label>
active

$$$$
>  <compound>
CC[N+](CC)=c1ccc2nc3c(cc(NCc4ccccc4)c4ccccc43)oc-2c1

>  <discrete.label>
active

$$$$
>  <compound>
O=C(Nc1ccccc1O)c1ccc(NS(=O)(=O)c2cccc3cccnc23)cc1

>  <discrete.label>
active

$$$$
>  <compound>
NC(=S)N1N=C(c2ccc(Cl)cc2)CC1c1cc2ccccc2[nH]c1=O (stereo not given)

>  <discrete.label>
inactive

$$$$
>  <compound>
COc1ccc2c(c1)N(CCO)C1=C(C(=O)OC1)C2c1ccccc1 (stereo not given)

>  <discrete.label>
active

$$$$
>  <compound>
CCN1C(=O)C2(Nc3ccccc3S2)c2cc(C)ccc21 (stereo not given)

>  <discrete.label>
inactive

$$$$
>  <compound>
CCOC(=O)c1c(C)cc(=O)oc1C

>  <discrete.label>
inactive

$$$$
>  <compound>
COc1ccc(/C=C2\CCCC3=C2NC(N)=NC3c2ccc(OC)cc2)cc1 (stereo not given)

>  <discrete.label>
inactive

$$$$
>  <compound>
COc1ccc(-c2nnc(N3CCN(C(=O)CN4CCN(c5ccc(Cl)cc5)CC4)CC3)nc2-c2ccc(OC)cc2)cc1

>  <discrete.label>
active

$$$$
>  <compound>
Cc1cc(Cl)c2ccc(N(C)C)cc2n1

>  <discrete.label>
inactive

$$$$
>  <compound>
CC1CCc2cc(F)cc3c(=O)c(C(=O)O)cn1c23 (stereo not given)

>  <discrete.label>
inactive

$$$$
>  <compound>
COc1cc(Nc2ncccc2/C=C/C(=O)c2cc(OC)c(OC)c(OC)c2)cc(OC)c1OC

>  <discrete.label>
inactive

$$$$
>  <compound>
CCN1C(=O)N(CC)C2C1NN=c1s/c(=C\c3ccco3)c(=O)n12 (stereo not given)

>  <discrete.label>
active

$$$$
>  <compound>
COC(=O)CCCCCCCCC1(C)C=CC(C(C)O)=CC1 (stereo not given)

>  <discrete.label>
inactive

$$$$
>  <compound>
C=CC(=O)Nc1cccc(-c2nc(SC)nc(NCCc3ccc(OC)c(OC)c3)c2C#N)c1

>  <discrete.label>
inactive

$$$$
>  <compound>
CN1CCCC1=Nc1ccccc1

>  <discrete.label>
inactive

$$$$
>  <compound>
CC12CCC(CC1)C(C)(C)O2

>  <discrete.label>
inactive

$$$$
>  <compound>
N#Cc1c(NC(=O)c2ccc(Br)cc2)sc2c1CCCC2

>  <discrete.label>
inactive

$$$$
>  <compound>
CO[C@H]1NC(=O)N(S(=O)(=O)c2ccc(Cl)cc2)[C@@H]1OC

>  <discrete.label>
inactive

$$$$
>  <compound>
CN1CCOCCOCCOc2ccccc2NC(=O)c2nc(cnc2N)-c2ccc(cc2)S1(=O)=O

>  <discrete.label>
active

$$$$
>  <compound>
CC[C@]1(O)CC2CN(CCc3c([nH]c4ccccc34)[C@@](C(=O)OC)(c3cc4c(cc3OC)N(C=O)[C@H]3[C@@](O)(C(=O)OC)[C@H](OC(C)=O)[C@]5(CC)C=CCN6CC[C@]43[C@@H]65)C2)C1 (stereo not given in full)

>  <discrete.label>
active

$$$$
>  <compound>
c1ccc(Cn2cc3c(c2)-c2nc(Nc4ccccc4)ncc2CC3)cc1

>  <discrete.label>
inactive

$$$$
>  <compound>
CN1CCc2c(sc3nc4n(-c5ccc(Cl)cc5)cnn4c(=O)c23)C1

>  <discrete.label>
inactive

$$$$
>  <compound>
COc1ccc(N=Nc2cc(OC)c(OC)c(OC)c2)cc1

>  <discrete.label>
inactive

$$$$
>  <compound>
Cc1ccc(S(=O)(=O)Oc2cc(OS(=O)(=O)c3ccc(C)cc3)cc(OS(=O)(=O)c3ccc(C)cc3)c2)cc1

>  <discrete.label>
inactive

$$$$
>  <compound>
CCCN(CCC)C(=O)[C@H](CC)[C@@H]1CC[C@@H](C)[C@@H]([C@H](C)[C@@H](O)[C@@H](C)C(=O)[C@H](CC)C2O[C@]3(C=C[C@@H](O)[C@]4(CC[C@@](C)([C@H]5CC[C@](O)(CC)[C@H](C)O5)O4)O3)[C@H](C)C[C@@H]2C)O1 (stereo not given in full)

>  <discrete.label>
active

$$$$
>  <compound>
CCC(C)N(CCNc1cc(OC)cc2cccnc12)CCC(C)C (stereo not given)

>  <discrete.label>
inactive

$$$$
>  <compound>
O=C1Nc2ccccc2/C1=C\c1c[nH]c2ccc(Br)cc12

>  <discrete.label>
inactive

$$$$
>  <compound>
c1ccc(-c2nc3ccccc3s2)cc1

>  <discrete.label>
inactive

$$$$
>  <compound>
COc1ccc(Nc2cc(C)nc(NCCCNc3ccnc4cc(Cl)ccc34)n2)cc1

>  <discrete.label>
active

$$$$
>  <compound>
Cn1cc(-c2ccc3cc(-c4ccc(CC(=O)Nc5cc(C(C)(C)C)nn5C)cc4)cnc3c2)cn1

>  <discrete.label>
inactive

$$$$
